Kindly state Kd for each of the entries shown.
system-under-test: T1, recombinant TST-Galphai1 protein bound to GDP (human, UniProt P63096 1-354, Loaded non-covalently with GDP (10 uM). The N-terminal TwinStreptag and TEV linker are not in the letters.)
T1 construct: Same polypeptide as m14 and m16; here loaded with an excess of GDP (10 uM); Produced in Sf9 insect cells; also called Galphai1 protein loaded with GDP
T1 sequence (P63096 whole entry): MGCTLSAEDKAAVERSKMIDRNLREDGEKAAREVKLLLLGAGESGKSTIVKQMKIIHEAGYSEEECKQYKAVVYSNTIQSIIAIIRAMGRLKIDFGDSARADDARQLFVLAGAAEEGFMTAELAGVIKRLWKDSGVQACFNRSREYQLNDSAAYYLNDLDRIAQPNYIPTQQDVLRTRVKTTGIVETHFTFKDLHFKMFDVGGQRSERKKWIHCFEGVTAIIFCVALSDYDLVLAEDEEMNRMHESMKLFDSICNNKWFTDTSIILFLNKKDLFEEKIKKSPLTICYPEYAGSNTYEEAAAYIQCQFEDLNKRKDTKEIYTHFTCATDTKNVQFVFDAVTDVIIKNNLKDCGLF
measurement-protocol: TR-FRET (HTRF) saturation binding; VH-d2 titrated on 1 nM TST-Galphai1 with 10 uM GDP, anti-TST-Lumi4-Tb donor; mean Kd
State the answer as a number, implicitly in nM.

Reported Kd for VH E2 (VHH, labeled with the acceptor fluorescent probe d2 (site not stated), Made in E. coli; also called anti-Galphai VH antibody-d2) VHH: EVQLVESGGGLVQPGGSLRLSCIGSGYTFSSYAMAWVRQASGKGPEWVASISSRGITTDYAHSVKGRFTISRDNAKNTLYLHMNNLKPEDTALYYCTRVLWYENGLYSLNDFWGQGTQVTVSS : what is it?
72

Reported Kd for VH A10 (VHH, labeled with the acceptor fluorescent probe d2 (site not stated), Made in E. coli; also called anti-Galphai VH antibody-d2) VHH: EVQLVESGGGLVQPGGSLRLSCAASGLTYSDYAMSWVRQAAGKGPEWVASISSRGITTDYAHSVKGRFTVSRDNTKNTLYLQMNSLEPEDTAVYYCTTVSYWRYEYWGQGTQVTVSS : what is it?
15

Reported Kd for VH G7 (VHH, labeled with the acceptor fluorescent probe d2 (site not stated), Made in E. coli; also called anti-Galphai VH antibody-d2) VHH: QVQLQESGGGLVQPGGSLRLSCAASGFTFSWYGMSWVRQAPGKGPEWVASISSRGITTDYAHSVKGRFTVSRDNTKNTLYLQMNSLKPEDTGVYYCTRVLWYDSGAYSLNDFWGQGTQVTVSS : what is it?
31

Reported Kd for VH F2 (VHH, labeled with the acceptor fluorescent probe d2 (site not stated), Made in E. coli; also called anti-Galphai VH antibody-d2) VHH: EVQLVESGGGLVQPGGSLRLSCAASGFTFSSYAMSWVRQAAGKGPEWVASISSRGITTDYAHSVKGRFTVSRDNTKNTLYLQMNSLKPEDTALYYCVKGWMPTGWGQGTQVTVSS : what is it?
14
